# test method notes: yeast display, Sf9 membrane polyspecificity reagent, FACS + sequencing; frameworks hold sequencing errors
endpoint name: polyreactivity (PSR sort gate)

Example sequences with recorded polyreactivity (PSR sort gate):
• QVQLVVSGGGLVQAGGSLRLSCAASGRIFWFNAMGWYRQAPGKEREFVATITYRGGSTYYADSVKGRFTISRDNAKNTVYLQMNSLLPEDTAVYYCAASVSYRRYHRFGYWGQGTQVTVSS = high polyreactivity
• QVQLVESGGGLVQAGGSLRLSCAASGIILPYYVMGWYRQAPGKERELVAAISSGGRTYYADSVKGRFTISRDNAKNTVYLQMNSLKPEDTAVYYCNAYFTGKWYDYWGQGTQVTVSS = high polyreactivity
• QVQLVESGGGLVQAGGSLRLSCAASGGTFGSYAMGWYRQAPGKERELVAGITGSGGITKYADSVKGRFTISRDNAKNTVYLQMNSLKPEDTAVYYCNADYSVWYIRLSAYFTYDYWGQGTQVTVSS = high polyreactivity
• QVQLVESGGGIVQAGGSLRLSCAASGLIFSRYTMGWYRQAPAKEMELVAAISGRGTSTYYAYSVKGRFTISRDNAKNTVYLLMNSLKPEDTAVYYCATSKSYSAFDYWGQGTQVTVSS = high polyreactivity

For record QVQLVESGGGLVQAGGSLRLSCAASGITFIYYAMGWYRQAPGKERELVAAISRSGGSTYYADSVKGRFTISRDNAKNTVYLQMNSLKPEDTAVYYCAADGTKFSGRVTGDYWGQGTQVTVSS the listed polyreactivity (PSR sort gate) is high polyreactivity

====

# test method notes: yeast display, Sf9 membrane polyspecificity reagent, FACS + sequencing; frameworks hold sequencing errors
endpoint name: polyreactivity (PSR sort gate)

// known answers, use as guide
• QVQLVESGGGLVQAGGSLRLSCAASGSSFGGYAMGWYRQAPGKERELVARITDRGGSTDYADSVKGRFTISRDNAKNTVYLQKNSLKPEDTAGSYCAKRGDRYEKRPRDYWGQGTQVTVSS = low polyreactivity
• QVQLVESGGGLVQAGGSLRLSCAASGFTLGSNVMGWYRQAPGKERELVAGISQSGGRTFYADSVKGRFTISRDNAKNTVYLQMNSLKPEDTAVYYCNAYRYYSPYGYWGQGTQVTVSS = low polyreactivity
• QVQLVESGGGLVQAGGSLRLSCAASGGIFSYAMGWSRQAPGKERELVADINSDGSTTYADSVKGRFTISRDNAKNTVYLQMNSLKPEDTAVYYCAVDVSVNWPLLERYEYWGQGTQVTVSS = low polyreactivity
• QLQLVDSGGGLVQAGGSLRLSCAASGFTLDYYAMGWYRQAPGKESELVAAISWSGGRTYYADSVKGRFTISRDNAKNTVYLQMNSLKPEDTAVYYCNASPYGRKYGILADGDYWGQGTQVTVSS = high polyreactivity

In the following, a different sequence is considered.
Item: QVQLVESGGGLVQAGGSLRLSCAASGSIFRYNAMGRYRQAPGKERELVAAITSNGGSTYYADSVKGRFTISRDNAKNTVYLQMNCQKPEDTAVYYCNAVYTFTRRYGYWGQGTQVTVSS | polyreactivity (PSR sort gate): high polyreactivity

====

# test method notes: yeast display, Sf9 membrane polyspecificity reagent, FACS + sequencing; frameworks hold sequencing errors
endpoint name: polyreactivity (PSR sort gate)

See these solved cases before continuing.
* QVQLVESGGGFVQAGGSLRLICAASGRIFGYYAMAWYRQAPGQERELVAAINWGGGITYYADSVKGRFTISRDNAKNTVYLQMNSLKPEDTAVYYCATDYKLVYSIYDYWGQGTQVTVSS | low polyreactivity
* QVQLVESGGGLVQAGGSLRLSCAASGFTFKLYAMGWYRQAPGKERELVAAISSSGGRTYYADSVKGRFTISRDNAKYNVYLQMNSLKPEDTAVYYCNAVRTVNDYHYDYWGQGTQVTVSS | high polyreactivity
* QVQLVESGGGLVQAGGSLRLSCAASGSIFYYYAMGWYRQAPGKERELVASITSGGRTYYADSVKGRFTISRDNAKNTVYFQMNSLKPEDTAVYYCAAVYGGLTLTRNYNWGQGTQVTVSS | high polyreactivity
* QVQLVESGGGLVQAGGSLRLSSAASGITFERNGMGWYRQAPGKERELVAAIRSGGSTYYADSVKGRFTISRDNAKITVYLQMNSQKPEDTAVYYCAAVTQGGYTYLGDYWGQGTQVTVSS | low polyreactivity

// recorded polyreactivity (PSR sort gate) for QVQLVESGGGLVQAGGSLRLSCAASGSTFYRYAMGWYRQAPGKETELVAAITWRGGSTYYADSVKGRFTISRDNAKNTVYLQMNSLKPEDTAVYYCAAAKYRRGTRYYYWGQCTQVTVSS : high polyreactivity

====

# test method notes: yeast display, Sf9 membrane polyspecificity reagent, FACS + sequencing; frameworks hold sequencing errors
endpoint name: polyreactivity (PSR sort gate)

Worked set:
- QVQLVESGGGLVQAGGSLRLSCAASGYTFYANAMGWYRQAPGKEREFVASITWSGGSTYYADSVKGRFTISRDNAKNNVYLQMHSLKPEDTAVYYCAAESWFKYDYWGQGTQVTVSS: low polyreactivity
- QVQLVESGGGLVQAGGSLRLSCAASGRTFRGYAMGWYRQAPGKERELVAAITSGGSTNYADSVKGRFTISRDNAKNTVYLQMNSLKPEDTAVYYCAAGRSTGQYRYYYWGQGTQVTVSS: high polyreactivity
- QVQLVESGGGLVQAGGSLRLSCAASGSTFGSNAMGWYRQAPGKEREFVAAISRRGGSTYYADSVKGRFTISRDNAKNTVYLQMNSLKPEDTAVYYCAADYISLREEDYWGQGTQVTVSS: high polyreactivity
- QVQLVESGGGLGQAGGSLRLSCAASGSIFPYYAMGWYRPAPGTERELVASINQSDGTPYYADSVKGRFTISRDNAKNTVYLQMNSLKPEDTAVYYCAADTTLQAFIRYRPIGSYDSWGQGTQVTVSS: low polyreactivity

Please fill in: polyreactivity (PSR sort gate) reported for QVQLVESGGGLVQAGGSLRLSCAASGSIFRNYAMGWSRQAPGKERELVAAITSIGGGTYYADSVKGRFTISRDNAKNTVYLQMNSLKPEDTADYYCAADYGFYPYDYVYWGQGTQVTVSS = low polyreactivity

====

# test method notes: yeast display, Sf9 membrane polyspecificity reagent, FACS + sequencing; frameworks hold sequencing errors
endpoint name: polyreactivity (PSR sort gate)

Example results:
- QVQLVESGGGLVQAGGSLRLSCAASGRSFLYYAMGWYRQAPGKERELVAAIRRGSSTYYADSVKGRFTISRDNAKNTVYLQMNSLKPEDTAVYYCAARGRYRIGPGRYGKRYAYWGQGTQVTVSS: high polyreactivity
- QVQLVESGGGLVQAGGSLRLICAASGSISYYNAMGRYRQAPGKERELVADITSGGGTYYADSVMGGFTISRDNAKNTVFLQMNSLKPEDTAVYYCAKDYGFTGYGYWGQGTQVTVSS: low polyreactivity
- QVQLVESGGGLVQAGGSLRLSCAASGITFYRNAMGWYRKAPGKERELLAAISWSGGRTYYADSVKGRFTISRDNAKNTVYLQMNSLKPEDTAVYYCAASSWSSYYRPKYYWGQGTQVTVSS: high polyreactivity
- QVHLVESGGRLVLAGGSLRLSCAASRRIFDLNAMRGYIQAPGKERELFAAITNTGSTNYADSVKGRFTISRDNAKNTVYLQMNSLKPEDTAVYYCARTYWLRYFGYRDDEYDYWGQGTQVTVSS: low polyreactivity
- QVQLVESGGGLVQAGGSLRLSCAASGIIFKLYAMGWYRQAPGKEREFVATITKTGGRTYYADSVKGRFTISRDNAKNTVYLQMNSLKPEDTAVYYCAARRVNGKMYYWGQGTQVTVSS: high polyreactivity

For QVHLVESGGGLVKAGGSLRLSCAASGLTFSYYARGWSRQPPGKEMELVAANSWSGGSTYYADSVKGRFTISRDNAKNTVYLQMNSLKPEDTAVYDCAVRPSDGVIFSKGYDHWGQGTQVTVSS the sequence record lists polyreactivity (PSR sort gate) as low polyreactivity

The recorded polyreactivity (PSR sort gate) for QVQLVESGGGLVQAGGSLRLSCAASGSTFSYYAMGWYRQAPGKERELVAAITRGGSTYYADSVKGRFTISRDNAKNTVYLQMNSLKPEDTAVYYCATRTWRWGYLHYDYWGQGTQVTVSS is low polyreactivity

response.value for QVQLVESGGGLVQAGGSLRLSCAASGSTFYRNAMGWYRQAPGKERELVAAITSGGSSTYYADSVKVRFTISRDNAKNTVYLQMNSLKPEDTAVYYCAAEPGIYYYWGQGTQVTVSS (field: polyreactivity (PSR sort gate)) = low polyreactivity

Consider QVQLVESGGGLVQAGGSLRLSCAASGSTLWVYAMGSYRQAPGKERELVAAITQSTGDTHYADSVKGRFTISRDNAKNTVYLQMNSLKPEDTAVYYCAADSYLSVYDPYGYWGQGTQVTVSS . Its measured polyreactivity (PSR sort gate) is low polyreactivity

For this sequence ( QVQLIESGGGLVQAGGSLRLSCAASGRTFRRYAMGWYRQAPGKERELVAAIDASGGSTYYADSVMGRFTISRDTSKNTVYLQMTILKQEDSAVSYCNTCSGQLQLQGGRHEYWGQGTQVTVSS ), measured polyreactivity (PSR sort gate) is high polyreactivity

Lookup result for QVQHVESGGGLVQAGGSLRLSSAASGNTINSNAMGWYRQSPGKEREFVAAISGSGSSTYYADSVKGRFTISRDYAKNTVYLQMNSLNPEDTAVYYCAARWGYFGSFDYWGQGTQVTVSS ; measured polyreactivity (PSR sort gate): high polyreactivity
